Assay: NOD1 signaling inhibitors, primary screen, cell-based, luminescence, uHTS (AID 1578);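 further: HEK-293T reporter cells stimulated with the NOD1 agonist gamma-tri-DAP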
Conditions: NOD1-driven NF-kB luciferase reporter cells, at 4 µM, hits give high values
About 3,000 (1%) of roughly 290,000 compounds were called active. Only a selection was taken, and actives are over-represented in it overall.
measure name: inhibition (%)
# value in %; strip the unit string

Challenge: Please report the recorded inhibition for `COC(=O)c1ccccc1NC(=O)Nc1cc(C)ccn1` .
Response given: -16.6

Challenge: Also need `Cc1cc(C)c2c(N)c(C(=O)c3ccc(Cl)cc3)sc2n1` , thanks.
Response given: 6.3

Challenge: Also need `Cc1cc(C)c2c(N)c(C(=O)c3ccc(Cl)cc3Cl)sc2n1` , thanks.
Response given: 81.7

Challenge: Also need `COc1ccc(CN2CCC(n3nccc3NC(=O)c3ccc4c(c3)OCO4)CC2)cc1C` , thanks.
Response given: -12.5

Challenge: Also need `Cc1cc(C)c2c(N)c(C(=O)c3ccccc3Cl)sc2n1` , thanks.
Response given: 0.3

Challenge: Also need `Cc1cccc(Nc2ncnc3ccc(Br)cc23)c1` , thanks.
Response given: 42.4

Challenge: Also need `CN1CCCC1=Nc1c2c(nc3ccccc13)N(C)CC2` , thanks.
Response given: -12.3

Challenge: Also need `CN(Cc1ccccc1)c1ncnc2ccc(Br)cc12` , thanks.
Response given: 10.2

Challenge: Also need COCC1CCN(Cc2cn[nH]c2-c2cc3ccccc3o2)C1 (stereo not given) , thanks.
Response given: -18.7

Challenge: Also need O=C1CSC(c2cn(-c3ccccc3)nc2-c2ccccc2)N1Cc1ccco1 (stereo not given) , thanks.
Response given: 51.6

Challenge: Also need O=C(NCC1CCCO1)c1ccc(/C=N/O)nc1 (stereo not given) , thanks.
Response given: -26.9

Challenge: Also need `CN1CCN(/N=C/c2ccc(N(C)c3ccccc3)cc2)CC1` , thanks.
Response given: -6.9

Challenge: Also need CC1CC(C)(C)Nc2ccc(N=O)cc21 (stereo not given) , thanks.
Response given: 41.9

Challenge: Also need `COC(=O)c1c(NC(=O)C2CCC2)sc(C(=O)N(C)C)c1C` , thanks.
Response given: -8.7

Challenge: Also need Cc1ccc(C)c(NC(=O)C2CCCN(S(=O)(=O)c3c(C)noc3/C=C/N(C)C)C2)c1 (stereo not given) , thanks.
Response given: -11.5

Challenge: Also need `CC(C)Nc1ncnc2ccc(Br)cc12` , thanks.
Response given: 87.6

Challenge: Also need `O=C(NCc1ccccc1)C1CCC1` , thanks.
Response given: -29

Challenge: Also need `CCOc1ccccc1Nc1ncnc2ccc(Br)cc12` , thanks.
Response given: -11.1

Challenge: Also need Cc1ccccc1NC(=O)CC1SCCNC1=O (stereo not given) , thanks.
Response given: 11.3

Challenge: Also need `Cc1cc(C)c2c(N)c(C(=O)Nc3ncc(C)s3)sc2n1` , thanks.
Response given: 92.5

Challenge: Also need `COc1ccc(/C=N/Nc2nnc(Cc3ccc(OC)c(OC)c3)c(=O)[nH]2)cc1OC` , thanks.
Response given: 4.2

Challenge: Also need `Cc1cc(C)c2c(N)c(C(=O)NN)sc2n1` , thanks.
Response given: -9.3

Challenge: Also need O=C1CC(N2CCN(c3ccc(O)cc3)CC2)C(=O)N1c1ccc2c(c1)OCO2 (stereo not given) , thanks.
Response given: -26.7

Challenge: Also need `O=C(NCc1cn2ccccc2n1)c1ccco1` , thanks.
Response given: 54

Challenge: Also need COc1cc(OC)c(NC2c3ccccc3C(=O)N2c2cc(C)ccn2)cc1Cl (stereo not given) , thanks.
Response given: -37.7
